- target.desc: T1, cynomolgus IL-36α, truncated (cynomolgus macaque (Macaca fascicularis), UniProt Q9UHA7 14-158 (human entry), limits assumed)
- T1 construct: Untagged after removal of the His-SUMO tag; also called cynomolgus IL-36 alpha; cyIL-36alpha
- T1 chain: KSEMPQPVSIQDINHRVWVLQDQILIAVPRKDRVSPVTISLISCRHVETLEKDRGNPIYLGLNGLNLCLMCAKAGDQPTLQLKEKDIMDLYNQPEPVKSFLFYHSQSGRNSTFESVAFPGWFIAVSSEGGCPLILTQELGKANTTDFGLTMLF
- test.description: SPR, Biacore, 1:1 Langmuir fit; heads of c3 and c4 printed swapped
Reported koff values for a set of binders
Unit s⁻¹ implied. Number only.

{"binder": "144D464A LV11re HV10b (antibody, V domains shown, Humanized) VH: QVQLVQSGAEVKKPGASVKVSCKASGFNIKDTYIHWVRQAPGQGLEWIGRIDPAIGTTRYDPKFQGRATITTDTSTSTVYLEFSSLRSEDTAVYYCARLHYFGNNFFFDYWGQGTLVTVSS VL: QAVVTQEPSLTVSPGGTVTLTCRSSSGAVTTSNYANWVQEKPGQLFAGLIGGTNDRAPGVPARFSGSLLGGKAALTISGAQPEDEAIYFCALWFSNHWVFGGGTKLTVL", "value.units": "s⁻¹", "koff": 0.000407}

Data request: Answer with the recorded koff of 144D464A LV9are HV10b (antibody, V domains shown, Humanized) VH: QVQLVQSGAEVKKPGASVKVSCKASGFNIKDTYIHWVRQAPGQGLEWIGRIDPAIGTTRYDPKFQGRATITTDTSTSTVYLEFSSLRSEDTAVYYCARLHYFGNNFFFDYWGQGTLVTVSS VL: QAVVTQEPSLTVSPGGTVTLTCRSSSGAVTTSNYANWVQEKPGQLFAGLIGGTNDRAPGVPARFSGSLLGGKAALTLSGAQPEDEADYFCALWFSNHWVFGGGTKLTVL only.
Data returned: 0.000422
